Target: T1, ERL1^LRR–TMM^LRR complex (Arabidopsis thaliana, UniProt C0LGW6;Q9SSD1)
T1 sequence 1: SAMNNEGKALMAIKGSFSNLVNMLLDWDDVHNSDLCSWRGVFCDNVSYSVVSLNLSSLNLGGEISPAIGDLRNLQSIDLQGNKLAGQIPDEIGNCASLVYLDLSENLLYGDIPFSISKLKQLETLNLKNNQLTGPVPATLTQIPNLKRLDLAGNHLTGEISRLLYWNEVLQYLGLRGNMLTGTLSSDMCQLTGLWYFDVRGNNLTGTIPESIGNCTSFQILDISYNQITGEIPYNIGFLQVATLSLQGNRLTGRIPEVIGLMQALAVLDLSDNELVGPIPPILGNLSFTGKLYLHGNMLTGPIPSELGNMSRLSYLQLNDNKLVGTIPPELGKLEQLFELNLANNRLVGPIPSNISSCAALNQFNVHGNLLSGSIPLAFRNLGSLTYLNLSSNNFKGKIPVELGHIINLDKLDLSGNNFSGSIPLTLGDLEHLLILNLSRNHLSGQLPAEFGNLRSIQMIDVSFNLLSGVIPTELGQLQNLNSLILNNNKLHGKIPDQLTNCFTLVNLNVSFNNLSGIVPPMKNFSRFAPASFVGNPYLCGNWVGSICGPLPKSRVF
T1 sequence 2: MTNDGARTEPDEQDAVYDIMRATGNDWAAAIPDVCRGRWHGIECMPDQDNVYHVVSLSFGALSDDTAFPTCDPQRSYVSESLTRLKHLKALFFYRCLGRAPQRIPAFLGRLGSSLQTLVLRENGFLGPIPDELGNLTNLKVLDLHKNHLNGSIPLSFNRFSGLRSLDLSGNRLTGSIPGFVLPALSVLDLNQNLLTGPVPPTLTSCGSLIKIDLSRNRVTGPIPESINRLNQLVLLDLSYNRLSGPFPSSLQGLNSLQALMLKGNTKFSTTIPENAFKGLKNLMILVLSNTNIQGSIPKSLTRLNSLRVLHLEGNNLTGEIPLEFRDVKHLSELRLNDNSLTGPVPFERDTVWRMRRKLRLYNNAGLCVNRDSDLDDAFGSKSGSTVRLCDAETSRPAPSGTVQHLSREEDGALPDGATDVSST
Assay: ITC
quantity-kind: Kd (nM)

[A] IGSTAPTCTYNECRGCRYKCRAEQVPVEGNDPINSAYHYRCVCHR [EPFL9 (STOMAGEN) peptide, residues 58–102]
[B] EPFL4 (CHALLAH-LIKE2, CLL2) peptide, residues 59–109 (peptide) PGSSPPTCRSKCGKCQPCKPVHVPIQPGLSMPLEYYPEAWRCKCGNKLFMP
*Q* Kd comparison. Which is larger, A or B ? Indicate which entry you chose by stating its label.
*A* A
(A: 4000 nM, B: 1300 nM)
